B1: INTS4 (parent)
chain: TIIEPAGESDNPLRFTSGLVVALD

Variants of: B1
Test: protein stability index of a GFP-peptide fusion (GPS, HEK-293T) (PSI 1-6); higher = more stable;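 note: lentivirally expressed fusions sorted by FACS into six bins by GFP to DsRed ratio, PSI derived from sequencing read proportions per bin multiplied by bin number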
Conditions: c terminus: a fixed tail appended
Measure name: protein stability index

Answer with reported protein stability index of D10A
2.96

Answer with reported protein stability index of L23W
2.97

Answer with reported protein stability index of V21Y
3

Answer with reported protein stability index of A6K
2.98

Answer with reported protein stability index of T16P
3
